# Protocol summary: Bioavailability in rat
# Assay type: ADME, organism-based
# Assay setup: in vivo
Measured property: bioavailability (%)

Worked examples follow.
1) Cc1cc(C(=O)Nc2ccc(-c3ccccc3CN)cc2F)n(-c2cc3ccccc3cc2F)n1 :: 22.8
2) Cc1cc(C(=O)Nc2ccc(N3CCOCC3=O)cc2F)n(-c2cc3ccccc3cc2S(C)(=O)=O)n1 :: 19.3
3) Cc1cc(C(=O)Nc2ccc(-c3ccccc3CN(C)C)cc2F)n(-c2cc3ccccc3cc2S(C)(=O)=O)n1 :: 18

(P) Cc1cc(C(=O)Nc2ccc(-c3ccccc3S(C)(=O)=O)cc2F)n(-c2cc3ccccc3cc2S(C)(=O)=O)n1
(Q) Cc1cc(C(=O)Nc2ccc(-c3ccccc3CN(C)C)cc2F)n(-c2ccc3cc(Cl)ccc3c2)n1
Could you please tell me which of these two has the higher bioavailability: P or Q ? Record your answer as the label of the chosen record.
Q
(Q: 35.2%, P: 18%)

###

# Target or test system: Coagulation factor X (Homo sapiens, UniProt P00742)
# Sequence (P00742 41-179 limits assumed): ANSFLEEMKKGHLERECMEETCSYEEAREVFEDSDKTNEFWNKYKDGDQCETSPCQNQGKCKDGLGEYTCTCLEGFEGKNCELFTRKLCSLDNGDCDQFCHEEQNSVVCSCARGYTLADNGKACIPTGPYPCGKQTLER
# Sequence (P00742 235-488 limits assumed): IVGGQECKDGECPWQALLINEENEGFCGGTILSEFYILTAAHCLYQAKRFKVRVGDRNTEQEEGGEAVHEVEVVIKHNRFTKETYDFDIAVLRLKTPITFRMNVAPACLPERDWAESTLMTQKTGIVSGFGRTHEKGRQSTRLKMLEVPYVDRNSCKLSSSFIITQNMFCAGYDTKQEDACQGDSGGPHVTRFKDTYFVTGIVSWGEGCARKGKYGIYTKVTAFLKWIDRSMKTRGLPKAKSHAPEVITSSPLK
# Protocol summary: In vitro anticoagulant potency measured in human plasma by thrombin generation (TG) assay expressed as 2 x TG
# Assay type: functional, cell-free
Measured property: Activity (µM)

1. Cc1cc(C(=O)Nc2ccc(-c3ccccc3CN)cc2F)n(-c2cc3ccccc3cc2F)n1 :: 2.2
2. Cc1cc(C(=O)Nc2ccc(N3CCOCC3=O)cc2)n(-c2ccc3cc(Cl)ccc3c2)n1 :: 3

(I) Cc1cc(C(=O)Nc2ccc(-c3ccccc3S(N)(=O)=O)cc2F)n(-c2cc3ccccc3cc2S(C)(=O)=O)n1
(II) Cc1cc(C(=O)Nc2ccc(-c3ccccc3S(C)(=O)=O)cc2F)n(-c2cc3ccccc3cc2S(C)(=O)=O)n1
Returns the identifier with the smallest measured Activity among I and II . Record your answer as the label of the chosen record.
II

###

# Protocol summary: Half-life determined in rat
# Type: ADME, organism-based
# Assay setup: in vivo
Measured property: half-life (min)

Worked examples follow.
1. Cc1cc(C(=O)Nc2ccc(-c3ccccc3S(C)(=O)=O)cc2F)n(-c2cc3ccccc3cc2S(C)(=O)=O)n1 :: 42
2. Cc1cc(C(=O)Nc2ccc(-c3ccccc3CN(C)C)cc2F)n(-c2cc3ccccc3cc2S(C)(=O)=O)n1 :: 168
3. Cc1cc(C(=O)Nc2ccc(-c3ccccc3CN(C)C)cc2F)n(-c2ccc3cc(Cl)ccc3c2)n1 :: 432

(I) Cc1cc(C(=O)Nc2ccc(-c3ccccc3CN)cc2F)n(-c2cc3ccccc3cc2F)n1
(II) Cc1cc(C(=O)Nc2ccc(N3CCOCC3=O)cc2F)n(-c2cc3ccccc3cc2S(C)(=O)=O)n1
Returns the identifier with the smallest measured half-life among I and II . Record your answer as the label of the chosen record.
II
(II: 30 min, I: 150 min)

###

The reader will find Ki measurements below, all made with Coagulation factor X (Homo sapiens).
Measured property: Ki (nM)

1) Cc1cc(C(=O)Nc2ccc(C(=O)N3CCCC3)cc2)n(-c2ccc3cc(Cl)ccc3c2)n1 :: 1.8

(A) Cc1cc(C(=O)Nc2ccc(-n3ccnc3CN(C)C)cc2)n(-c2ccc3cc(Cl)ccc3c2)n1
(B) Cc1cc(C(=O)Nc2ccc(-c3ccccc3S(C)(=O)=O)cc2)n(-c2ccc3cc(Cl)ccc3c2)n1
Returns the identifier with the smallest measured Ki among A and B . Record your answer as the label of the chosen record.
B

###

# Target or test system: Coagulation factor X (Homo sapiens)
Measured property: Ki (nM)

1. Cc1cc(C(=O)Nc2ccc(-c3ccccc3CN(C)C)cc2F)n(-c2ccc3cc(Cl)ccc3c2)n1 :: 1.5

(1) Cc1cc(C(=O)Nc2ccc(-c3ccccc3CN(C)C)cc2)n(-c2ccc3cc(Cl)ccc3c2)n1
(2) Cc1cc(C(=O)Nc2ccc(N3CCOCC3=O)cc2F)n(-c2cc3ccccc3cc2S(C)(=O)=O)n1
Returns the identifier with the smallest measured Ki among 1 and 2 . Record your answer as the label of the chosen record.
2
(2: 0.8 nM, 1: 1.8 nM)

###

The reader will find IC50 measurements below, all made with Coagulation factor X (Homo sapiens, UniProt P00742).
Measured property: IC50 (nM)

1. Cc1cc(C(=O)Nc2ccc(-n3ccnc3)cc2)n(-c2ccc3cc(Cl)ccc3c2)n1 :: 108

(P) Cc1cc(C(=O)Nc2ccc(N3CCOCC3)cc2)n(-c2ccc3cc(Cl)ccc3c2)n1
(Q) Cc1cc(C(=O)Nc2ccc(-c3ccccc3S(N)(=O)=O)cc2F)n(-c2cc3ccccc3cc2F)n1
(R) Cc1cc(C(=O)Nc2ccc(N3CCCC3=O)cc2F)n(-c2cc3ccccc3cc2S(C)(=O)=O)n1
In this exercise, place the 3 compounds in ascending sequence of their recorded IC50. A ranking is expressed here by listing the labels in the requested order.
Q, R, P
